molecular target: human DPP-VII (Homo sapiens, UniProt Q9UHL4); construct: The full length cDNAs for human DPP-VII, DPP-VIII, DPP-IX, and FAP were obtained from Open Biosystems; FLAG (N); made in house; host or cells: S9 (Sf9) insect cells, baculovirus (pFastBac, Bac-to-Bac); experiment: DPP-VII inhibition assay (Lys-Pro AMC), selectivity vs DPP-IV; format: biochemical; details: selectivity for DPP-IV relative to DPP-VII
Structures can show the parent of a compound that is named as a salt.
measurementKind: Selectivity Ratios DPP-VII

Below: 5 molecules and their reported Selectivity Ratios DPP-VII.
- molecule: "CC[C@@]1(N)C[C@@H]2SC[C@@H](C#N)N2C1=O.Cl [Compound 21]"
  reportedResult: "C (C ≧ 100)"
- molecule: "Cl.N#C[C@@H]1CS[C@H]2C[C@](N)(CCc3ccccc3)C(=O)N12 [Compound 27]"
  reportedResult: "A (A ≦ 10)"
- molecule: "Cl.N#C[C@@H]1CS[C@H]2C[C@](N)(CC3CCCCC3)C(=O)N12 [Compound 29]"
  reportedResult: "A (A ≦ 10)"
- molecule: "Cl.N#C[C@@H]1CS[C@H]2C[C@@](N)(C3CCCC3)C(=O)N12 [Compound 33]"
  reportedResult: "B (10 < B < 100)"
- molecule: "CC(C)[C@@]1(N)C[C@@H]2SC[C@@H](C#N)N2C1=O.Cl [Compound 22]"
  reportedResult: "C (C ≧ 100)"

INPUT: Request: Selectivity Ratios DPP-VII, test system human DPP-VII (Homo sapiens, UniProt Q9UHL4), entry N#CC1CSC2CC(N)(Cc3ccccc3)C(=O)N12 (centres unmarked) [Compound 28, hydrochloride]
OUTPUT: B (10 < B < 100)

INPUT: Request: Selectivity Ratios DPP-VII, test system human DPP-VII (Homo sapiens, UniProt Q9UHL4), entry Cl.N#C[C@@H]1CS[C@H]2C[C@@](N)(c3ccccc3)C(=O)N12 [Compound 34]
OUTPUT: C (C ≧ 100)

INPUT: Request: Selectivity Ratios DPP-VII, test system human DPP-VII (Homo sapiens, UniProt Q9UHL4), entry Cl.N#C[C@@H]1CS[C@H]2C[C@](N)(c3ccc(F)cc3)C(=O)N12 [Compound 30]
OUTPUT: B (10 < B < 100)

INPUT: Request: Selectivity Ratios DPP-VII, test system human DPP-VII (Homo sapiens, UniProt Q9UHL4), entry Cl.N#C[C@@H]1CS[C@H]2C[C@](N)(C3CCCCC3)C(=O)N12 [Compound 24]
OUTPUT: B (10 < B < 100)

INPUT: Request: Selectivity Ratios DPP-VII, test system human DPP-VII (Homo sapiens, UniProt Q9UHL4), entry Cl.N#C[C@@H]1CS[C@H]2C[C@](N)(C3CCCC3)C(=O)N12 [Compound 23]
OUTPUT: B (10 < B < 100)

INPUT: Request: Selectivity Ratios DPP-VII, test system human DPP-VII (Homo sapiens, UniProt Q9UHL4), entry Cl.N#C[C@@H]1CS[C@H]2C[C@@H](N)C(=O)N12 [Compound 7]
OUTPUT: C (C ≧ 100)

INPUT: Request: Selectivity Ratios DPP-VII, test system human DPP-VII (Homo sapiens, UniProt Q9UHL4), entry Cl.N#C[C@@H]1CS[C@H]2C[C@](N)(c3ccccc3)C(=O)N12 [Compound 31]
OUTPUT: C (C ≧ 100)

INPUT: Request: Selectivity Ratios DPP-VII, test system human DPP-VII (Homo sapiens, UniProt Q9UHL4), entry CC[C@H](C)[C@@]1(N)C[C@@H]2SC[C@@H](C#N)N2C1=O.Cl [Compound 26]
OUTPUT: B (10 < B < 100)

INPUT: Request: Selectivity Ratios DPP-VII, test system human DPP-VII (Homo sapiens, UniProt Q9UHL4), entry CC(C)C[C@@]1(N)C[C@@H]2SC[C@@H](C#N)N2C1=O.Cl [Compound 25]
OUTPUT: A (A ≦ 10)

* * *

target: human DPP-VIII (Homo sapiens); construct: The full length cDNAs for human DPP-VII, DPP-VIII, DPP-IX, and FAP were obtained from Open Biosystems; 6xHis (C); made in house; host or cells: S9 (Sf9) insect cells, baculovirus (pFastBac, Bac-to-Bac); assay: DPP-VIII inhibition assay (Ala-Pro AMC), selectivity vs DPP-IV; format: biochemical; settings: selectivity for DPP-IV relative to DPP-VIII
measurementKind: Selectivity Ratios DPP-VIII

- compound: "Cl.N#C[C@@H]1CS[C@H]2C[C@](N)(C3CCCC3)C(=O)N12 [Compound 23]"
  reportedResult: "A (A ≦ 10)"
- compound: "Cl.N#C[C@@H]1CS[C@H]2C[C@@](N)(C3CCCC3)C(=O)N12 [Compound 33]"
  reportedResult: "B (10 < B < 100)"
- compound: "CC(C)[C@@]1(N)C[C@@H]2SC[C@@H](C#N)N2C1=O.Cl [Compound 22]"
  reportedResult: "B (10 < B < 100)"
- compound: "Cl.N#C[C@@H]1CS[C@H]2C[C@](N)(C3CCCCC3)C(=O)N12 [Compound 24]"
  reportedResult: "A (A ≦ 10)"

* * *

target: human DPP-VIII (Homo sapiens, UniProt Q6V1X1); construct: The full length cDNAs for human DPP-VII, DPP-VIII, DPP-IX, and FAP were obtained from Open Biosystems; 6xHis (C); made in house; host or cells: S9 (Sf9) insect cells, baculovirus (pFastBac, Bac-to-Bac); assay: DPP-VIII inhibition assay (Ala-Pro AMC), selectivity vs DPP-IV; format: biochemical; details: selectivity for DPP-IV relative to DPP-VIII
Sequence (Q6V1X1 whole entry): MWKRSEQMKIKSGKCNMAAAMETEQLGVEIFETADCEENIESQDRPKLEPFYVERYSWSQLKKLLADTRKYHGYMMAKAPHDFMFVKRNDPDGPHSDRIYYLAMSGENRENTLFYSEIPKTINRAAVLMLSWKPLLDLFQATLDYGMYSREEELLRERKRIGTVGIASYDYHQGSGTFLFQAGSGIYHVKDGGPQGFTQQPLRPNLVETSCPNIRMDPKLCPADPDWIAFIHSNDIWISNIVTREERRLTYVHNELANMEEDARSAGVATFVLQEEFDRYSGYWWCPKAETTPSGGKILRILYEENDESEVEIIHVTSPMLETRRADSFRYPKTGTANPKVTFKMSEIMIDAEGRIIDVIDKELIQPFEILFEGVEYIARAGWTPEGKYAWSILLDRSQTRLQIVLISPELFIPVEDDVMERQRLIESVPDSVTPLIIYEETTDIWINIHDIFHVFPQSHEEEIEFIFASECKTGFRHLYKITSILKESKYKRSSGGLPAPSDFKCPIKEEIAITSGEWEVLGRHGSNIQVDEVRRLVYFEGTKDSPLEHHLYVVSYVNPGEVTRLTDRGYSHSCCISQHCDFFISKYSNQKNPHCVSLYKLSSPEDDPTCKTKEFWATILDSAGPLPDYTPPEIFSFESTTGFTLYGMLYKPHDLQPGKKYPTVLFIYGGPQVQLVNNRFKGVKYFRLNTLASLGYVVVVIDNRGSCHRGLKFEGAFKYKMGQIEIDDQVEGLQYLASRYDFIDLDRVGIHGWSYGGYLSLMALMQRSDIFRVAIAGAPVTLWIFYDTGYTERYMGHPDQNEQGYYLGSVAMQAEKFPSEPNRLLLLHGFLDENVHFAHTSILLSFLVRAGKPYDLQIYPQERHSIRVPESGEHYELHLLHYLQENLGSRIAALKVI
Counter-ions that a name gives are not always drawn.

- molecule: "Cl.N#C[C@@H]1CS[C@H]2C[C@](N)(CCc3ccccc3)C(=O)N12"
  Selectivity Ratios DPP-VIII: "A (A ≦ 10)"
- molecule: "CC[C@@]1(N)C[C@@H]2SC[C@@H](C#N)N2C1=O.Cl"
  Selectivity Ratios DPP-VIII: "B (10 < B < 100)"
- molecule: "Cl.N#C[C@@H]1CS[C@H]2C[C@](N)(CC3CCCCC3)C(=O)N12"
  Selectivity Ratios DPP-VIII: "A (A ≦ 10)"
- molecule: "N#CC1CSC2CC(N)(Cc3ccccc3)C(=O)N12 (stereo not shown) [Compound 28, hydrochloride]"
  Selectivity Ratios DPP-VIII: "B (10 < B < 100)"

* * *

target: human FAP (Homo sapiens, UniProt Q12884); construct: The full length cDNAs for human DPP-VII, DPP-VIII, DPP-IX, and FAP were obtained from Open Biosystems; 6xHis (N); made in house; host or cells: S9 (Sf9) insect cells, baculovirus (pFastBac, Bac-to-Bac); assay: FAP inhibition assay (Ala-Pro AMC), selectivity vs DPP-IV; type: biochemical; conditions: selectivity for DPP-IV relative to FAP
Sequence (Q12884 whole entry): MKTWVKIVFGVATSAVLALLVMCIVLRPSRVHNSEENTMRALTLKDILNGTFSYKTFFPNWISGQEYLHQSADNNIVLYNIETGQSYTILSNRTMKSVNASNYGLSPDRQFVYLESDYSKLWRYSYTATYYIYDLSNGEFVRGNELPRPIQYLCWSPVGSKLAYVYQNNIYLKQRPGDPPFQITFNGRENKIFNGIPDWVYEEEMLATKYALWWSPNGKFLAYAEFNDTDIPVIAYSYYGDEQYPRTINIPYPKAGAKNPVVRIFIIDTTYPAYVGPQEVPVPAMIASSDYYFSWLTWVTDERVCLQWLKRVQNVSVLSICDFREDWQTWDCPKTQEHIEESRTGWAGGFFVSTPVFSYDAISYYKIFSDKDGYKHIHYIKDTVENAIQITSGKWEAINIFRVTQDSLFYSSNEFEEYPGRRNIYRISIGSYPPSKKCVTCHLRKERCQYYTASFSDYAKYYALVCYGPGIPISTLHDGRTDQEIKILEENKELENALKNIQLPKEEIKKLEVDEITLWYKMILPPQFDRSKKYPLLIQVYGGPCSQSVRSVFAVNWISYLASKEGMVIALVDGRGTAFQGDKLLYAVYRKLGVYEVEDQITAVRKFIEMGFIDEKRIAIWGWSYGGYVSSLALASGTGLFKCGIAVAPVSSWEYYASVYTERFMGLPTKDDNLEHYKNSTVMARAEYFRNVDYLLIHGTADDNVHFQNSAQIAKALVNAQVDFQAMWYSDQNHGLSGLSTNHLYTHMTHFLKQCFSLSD
Structures can show the parent of a compound that is named as a salt.
measurementKind: Selectivity Ratios FAP

Below: 5 molecules and their reported Selectivity Ratios FAP.
- molecule: "Cl.N#C[C@@H]1CS[C@H]2C[C@@](N)(C3CCCC3)C(=O)N12 [Compound 33]"
  Selectivity Ratios FAP: "B (10 < B < 100)"
- molecule: "Cl.N#C[C@@H]1CS[C@H]2C[C@](N)(c3ccccc3)C(=O)N12 [Compound 31]"
  Selectivity Ratios FAP: "C (C ≧ 100)"
- molecule: "Cl.N#C[C@@H]1CS[C@H]2C[C@](N)(c3ccc(F)cc3)C(=O)N12 [Compound 30]"
  Selectivity Ratios FAP: "B (10 < B < 100)"
- molecule: "CC(C)C[C@@]1(N)C[C@@H]2SC[C@@H](C#N)N2C1=O.Cl [Compound 25]"
  Selectivity Ratios FAP: "C (C ≧ 100)"
- molecule: "Cl.N#C[C@@H]1CS[C@H]2C[C@@](N)(c3ccccc3)C(=O)N12 [Compound 34]"
  Selectivity Ratios FAP: "C (C ≧ 100)"

INPUT: Which Selectivity Ratios FAP reading was recorded for the molecule CC[C@@]1(N)C[C@@H]2SC[C@@H](C#N)N2C1=O.Cl [Compound 21] ?
OUTPUT: C (C ≧ 100)

INPUT: Which Selectivity Ratios FAP reading was recorded for the molecule Cl.N#C[C@@H]1CS[C@H]2C[C@](N)(C3CCCC3)C(=O)N12 [Compound 23] ?
OUTPUT: C (C ≧ 100)

INPUT: Which Selectivity Ratios FAP reading was recorded for the molecule CC[C@H](C)[C@@]1(N)C[C@@H]2SC[C@@H](C#N)N2C1=O.Cl [Compound 26] ?
OUTPUT: C (C ≧ 100)

INPUT: Which Selectivity Ratios FAP reading was recorded for the molecule Cl.N#C[C@@H]1CS[C@H]2C[C@@H](N)C(=O)N12 [Compound 7] ?
OUTPUT: C (C ≧ 100)

INPUT: Which Selectivity Ratios FAP reading was recorded for the molecule N#CC1CSC2CC(N)(Cc3ccccc3)C(=O)N12 (centres unmarked) [Compound 28, hydrochloride] ?
OUTPUT: B (10 < B < 100)

Each recorded value in this set is attributed to patent US7786163B2.
